Form field: log10 MS Dog THalf (one value per entry).
Assay: Microsomal stability assay, dog
Assay type: in vitro ADME
Details: metabolic stability, dog liver microsomes 0.5 mg/mL, substrate 3 uM
Answers are given as log10 of MS Dog THalf in min.

Solved entries:
Given the entry Cc1nc(Cn2cnc3ccc(-c4ccc(OC(F)(F)F)cc4)cc3c2=O)no1 , report its measured log10 MS Dog THalf. 2.55

Which log10 MS Dog THalf is listed for O=c1c2cc(-c3ccc(OC(F)(F)F)cc3)ccc2nnn1CC1(CN2CCCC2)CC1 ? 1.56

# query: log10 MS Dog THalf of entry O=c1c2cc(-c3ccc(OC(F)(F)F)cc3)ccc2cnn1Cc1ncccn1 1.82

Further cases:
Form field: reported log10 MS Dog THalf of O=C(NCc1ncccn1)N1CCc2ccc(-c3ccc(C(F)(F)F)cc3)cc2C1 2.25

Item O=c1c2cc(-c3ccc(OC(F)(F)F)cc3)ccc2nnn1Cc1nnc(C2CC2)o1 has what recorded log10 MS Dog THalf? 2.43

# query: log10 MS Dog THalf of entry COc1ccnc(Cn2ncc3ccc(-c4ccc(OC(F)(F)F)cc4)cc3c2=O)n1 2.22

Which log10 MS Dog THalf reading was recorded for the compound Cc1cc(C)nc(Cn2ncc3ccc(-c4ccc(OC(F)(F)F)cc4)cc3c2=O)n1 ? 2.28

Which log10 MS Dog THalf value is on record for Cc1nc(Cn2ncc3ccc(-c4ccc(OC(F)(F)F)cc4)cc3c2=O)no1 ? 2.09

Item COC(=O)C1(Cn2nnc3ccc(-c4ccc(OC(F)(F)F)cc4)cc3c2=O)CC1 has what recorded log10 MS Dog THalf? 0.30
